Reference for the values: ChEMBL document CHEMBL1128375

- Species: Oryctolagus cuniculus
- assay-summary: In vitro relaxation of precontracted rabbit aortic rings.
- Type: functional
- test-parameters: Aorta
observed-property: pEC50
Numbers only, as −log10 of the molar value.

Worked cases, pEC50 given:
O=S(=O)(NO)c1ccccc1: 5.99
O=C1c2ccccc2S(=O)(=O)N1O: 4.84
O=S(=O)(NO)c1ccc(Cl)cc1: 5.87

Requested field: pEC50. Item: "CC(=O)ON1C(=O)c2ccccc2S1(=O)=O"
4.28
